- Tested on: P. aeruginosa (MBL18)
- MEASUREMENT_PROTOCOL: Antibacterial activity, agar dilution MIC (CLSI)
- Format: cell-based
- CONDITION_PARAMETERS: Pseudomonas aeruginosa, ESBL VIM
QUANTITY_KIND: MIC

Completed entries (count: 3):
compound=CC(C)(O/N=C(\C(=O)N[C@@H]1C(=O)N2C(C(=O)[O-])=C(C[n+]3ccccc3)CS[C@H]12)c1csc(N)n1)C(=O)O reported_value="> 32 µg/mL"
compound="CO/N=C(\\C(=O)N[C@@H]1C(=O)N2C(C(=O)[O-])=C(C[N+]3(C)CCCC3)CS[C@H]12)c1csc(N)n1 [Cefepime]" reported_value="> 32 µg/mL"
compound=C[C@@H](O)[C@H]1C(=O)N2C(C(=O)O)=C(SCCN=CN)C[C@H]12 reported_value="16 µg/mL"

Here is another compound to look at.
MIC reported for this compound NC[C@@H]1CC[C@@H]2CN1C(=O)N2OS(=O)(=O)O : 8 µg/mL
